The measurements presented in this section are drawn from ChEMBL document CHEMBL1156167.

- TARGET: Sphingosine 1-phosphate receptor 3 (Homo sapiens)
- Sequence (Q99500 whole entry): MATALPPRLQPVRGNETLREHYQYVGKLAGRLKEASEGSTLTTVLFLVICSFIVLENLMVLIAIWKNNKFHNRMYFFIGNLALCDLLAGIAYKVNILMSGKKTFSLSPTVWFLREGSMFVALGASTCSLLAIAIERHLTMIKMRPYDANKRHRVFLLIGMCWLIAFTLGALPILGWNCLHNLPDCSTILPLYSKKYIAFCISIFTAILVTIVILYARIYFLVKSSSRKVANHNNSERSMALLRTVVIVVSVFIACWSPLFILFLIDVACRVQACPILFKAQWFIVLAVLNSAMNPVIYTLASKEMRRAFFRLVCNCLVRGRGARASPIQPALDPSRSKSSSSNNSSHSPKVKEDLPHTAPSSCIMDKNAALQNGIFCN
- PROCEDURE DETAILS: Agonist activity at human S1P3 receptor expressed in HEK293T cells assessed as stimulation of gamma-[35S]GTP binding after 30 mins by scintillation counting
# EC50 per record follows
MEASURED METRIC: EC50 (nM)

# SMILES NOTATION, QUALIFYING SIGN, TEST RESULT
measured = [
    ("C[C@](N)(COP(=O)(O)O)c1nc(-c2ccc(OCc3ccc(-c4ccccc4)cc3)c(C(F)(F)F)c2)c[nH]1", ">", 3000),
    ("C[C@](N)(COP(=O)(O)O)c1nc(-c2ccc(OCCc3ccc(-c4ccccc4)cc3)c(C(F)(F)F)c2)c[nH]1", ">", 3000),
    ("C[C@](N)(COP(=O)(O)O)C(=O)Nc1ccc(OCCc2ccc(-c3ccccc3)cc2)cc1", "=", 120),
    ("C[C@](N)(COP(=O)(O)O)C(=O)Nc1ccc(OCCc2ccc(-c3ccccc3)cc2)c(C(F)(F)F)c1", ">", 3000),
    ("C[C@](N)(COP(=O)(O)O)c1nc(-c2ccc(OCc3ccc(-c4ccccc4)cc3)cc2)c[nH]1", "=", 54.8),
    ("C[C@](N)(COP(=O)(O)O)C(=O)Nc1ccc(C(=O)CCc2ccc(-c3ccccc3)cc2)cc1", ">", 3000),
    ("CCCCCCCCCCCCC/C=C/[C@@H](O)[C@@H](N)COP(=O)(O)O", "=", 2.4),
]

---

Each entry below carries its recorded Activity.
- Tested on: Mus musculus
- PROCEDURE DETAILS: Immunomodulatory activity in C57BL/6 mouse assessed as induction of lymphopenia at 10 mg/kg, po after 6 hrs by complete blood count analysis
- Type: functional

# SMILES NOTATION, TARGET, Activity, %
rows = [
    ("C[C@](N)(CO)C(=O)Nc1ccc(C(=O)NCc2ccc(-c3ccccc3)cc2)cc1", "Mus musculus", 32),
    ("C[C@](N)(COP(=O)(O)O)c1nc(-c2ccc(OCc3ccc(-c4ccccc4)cc3)c(C(F)(F)F)c2)c[nH]1", "Mus musculus", 85),
    ("C[C@](N)(CO)C(=O)Nc1ccc(SCCc2ccc(-c3ccccc3)cc2)cc1", "Mus musculus", 21),
    ("C[C@](N)(CO)C(=O)Nc1ccc(C(=O)CCc2ccc(-c3ccccc3)cc2)cc1", "Mus musculus", 84),
    ("C[C@](N)(COP(=O)(O)O)c1nc(-c2ccc(OCCc3ccc(-c4ccccc4)cc3)c(C(F)(F)F)c2)c[nH]1", "Mus musculus", 64),
]

---

- TARGET: UniProt:Q9H228
- Sequence (Q9H228 whole entry): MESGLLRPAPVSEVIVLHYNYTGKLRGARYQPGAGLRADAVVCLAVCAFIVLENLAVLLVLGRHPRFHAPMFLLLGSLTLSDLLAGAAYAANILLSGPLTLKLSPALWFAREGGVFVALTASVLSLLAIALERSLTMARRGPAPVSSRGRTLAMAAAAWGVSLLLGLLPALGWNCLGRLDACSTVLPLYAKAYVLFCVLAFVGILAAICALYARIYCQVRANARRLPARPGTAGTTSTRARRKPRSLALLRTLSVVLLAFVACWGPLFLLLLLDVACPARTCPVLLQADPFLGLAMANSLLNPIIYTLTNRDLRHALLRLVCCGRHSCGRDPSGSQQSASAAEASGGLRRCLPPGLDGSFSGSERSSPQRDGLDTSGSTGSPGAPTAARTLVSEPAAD
- PROCEDURE DETAILS: Displacement of [33P]sphingosine-1-phosphate from human S1P5 receptor expressed in HEK293T cells after 60 mins by scintillation counting
pIC50: −log10 of the molar value.

# SMILES NOTATION, TARGET, pIC50
records = [
    ("C[C@](N)(COP(=O)(O)O)C(=O)Nc1ccc(C(=O)CCc2ccc(-c3ccccc3)cc2)cc1", "UniProt:Q9H228", 5.87),
    ("C[C@](N)(COP(=O)(O)O)c1nc(-c2ccc(OCCc3ccc(-c4ccccc4)cc3)c(C(F)(F)F)c2)c[nH]1", "UniProt:Q9H228", 6.74),
    ("C[C@](N)(COP(=O)(O)O)c1nc(-c2ccc(OCc3ccc(-c4ccccc4)cc3)c(C(F)(F)F)c2)c[nH]1", "UniProt:Q9H228", 8.02),
    ("C[C@](N)(COP(=O)(O)O)C(=O)Nc1ccc(OCCc2ccc(-c3ccccc3)cc2)c(C(F)(F)F)c1", "UniProt:Q9H228", 7.06),
    ("C[C@](N)(COP(=O)(O)O)C(=O)Nc1ccc(OCCc2ccc(-c3ccccc3)cc2)cc1", "UniProt:Q9H228", 7.36),
]

---

- Organism: Homo sapiens
- PROCEDURE DETAILS: Selectivity ratio of IC50 for human S1P3 receptor to IC50 for human S1P1 receptor by [33P]sphingosine-1-phosphate displacement assay
Values of Ratio IC50 strictly less than 200 map to MET, and values of at least 200 map to NOT MET.

# SMILES NOTATION, LABEL CLASS
rows = [
    ("COC(=O)c1cc(NC(=O)[C@@](C)(N)COP(=O)(O)O)ccc1OCCc1ccc(-c2ccccc2)cc1", "NOT MET"),
    ("C[C@](N)(COP(=O)(O)O)c1nc(-c2ccc(OCCc3ccc(-c4ccccc4)cc3)c(C(F)(F)F)c2)c[nH]1", "NOT MET"),
    ("C[C@](N)(COP(=O)(O)O)C(=O)Nc1ccc(OCCc2ccc(-c3ccccc3)cc2)c(C(F)(F)F)c1", "NOT MET"),
    ("C[C@](N)(COP(=O)(O)O)c1nc(-c2ccc(OCc3ccc(-c4ccccc4)cc3)cc2)c[nH]1", "MET"),
    ("Cc1cc(NC(=O)[C@@](C)(N)COP(=O)(O)O)ccc1OCCc1ccc(-c2ccccc2)cc1", "NOT MET"),
    ("C[C@](N)(COP(=O)(O)O)C(=O)Nc1ccc(OCCc2ccc(-c3ccccc3)cc2)cc1", "MET"),
    ("C[C@](N)(COP(=O)(O)O)C(=O)Nc1ccc(OCCc2ccc(-c3ccccc3)cc2)c(Br)c1", "NOT MET"),
    ("C[C@](N)(COP(=O)(O)O)C(=O)Nc1ccc(OCCc2ccc(-c3ccccc3)cc2)cc1C(F)(F)F", "MET"),
]

---

Below, each entry is listed with its recorded Ratio IC50.
- Organism: Homo sapiens
- PROCEDURE DETAILS: Selectivity ratio of IC50 for human S1P3 receptor to IC50 for human S1P1 receptor by [33P]sphingosine-1-phosphate displacement assay

# SMILES NOTATION, Ratio IC50
rows = [
    ("C[C@](N)(COP(=O)(O)O)c1nc(-c2ccc(OCc3ccc(-c4ccccc4)cc3)c(C(F)(F)F)c2)c[nH]1", 8700),
    ("C[C@](N)(COP(=O)(O)O)C(=O)Nc1ccc(OCCc2ccc(-c3ccccc3)cc2)c(C#N)c1", 588),
    ("C[C@](N)(COP(=O)(O)O)C(=O)Nc1ccc(C(=O)CCc2ccc(-c3ccccc3)cc2)cc1", 917),
    ("C[C@](N)(COP(=O)(O)O)C(=O)Nc1ccc(OCCc2ccc(-c3ccccc3)cc2)c(Cl)c1", 356),
]

---

- Organism: Homo sapiens
- PROCEDURE DETAILS: Selectivity ratio of EC50 for human S1P3 receptor to EC50 for human S1P1 receptor by gamma-[35S]GTP binding assay
- Assay type: functional
Some compounds, each annotated with its measured Ratio EC50.

# SMILES NOTATION, Ratio EC50
measured = [
    ("C[C@](N)(COP(=O)(O)O)c1nc(-c2ccc(OCCc3ccc(-c4ccccc4)cc3)c(C(F)(F)F)c2)c[nH]1", "> 134"),
    ("C[C@](N)(COP(=O)(O)O)C(=O)Nc1ccc(OCCc2ccc(-c3ccccc3)cc2)c(C(F)(F)F)c1", "> 2080"),
    ("C[C@](N)(COP(=O)(O)O)c1nc(-c2ccc(OCc3ccc(-c4ccccc4)cc3)cc2)c[nH]1", 25),
    ("C[C@](N)(COP(=O)(O)O)C(=O)Nc1ccc(OCCc2ccc(-c3ccccc3)cc2)cc1", 231),
    ("C[C@](N)(COP(=O)(O)O)c1nc(-c2ccc(OCc3ccc(-c4ccccc4)cc3)c(C(F)(F)F)c2)c[nH]1", "> 1850"),
    ("C[C@](N)(COP(=O)(O)O)C(=O)Nc1ccc(C(=O)CCc2ccc(-c3ccccc3)cc2)cc1", "> 164"),
]

---

- TARGET: Sphingosine 1-phosphate receptor 1 (Homo sapiens, UniProt P21453)
- Sequence (P21453 whole entry): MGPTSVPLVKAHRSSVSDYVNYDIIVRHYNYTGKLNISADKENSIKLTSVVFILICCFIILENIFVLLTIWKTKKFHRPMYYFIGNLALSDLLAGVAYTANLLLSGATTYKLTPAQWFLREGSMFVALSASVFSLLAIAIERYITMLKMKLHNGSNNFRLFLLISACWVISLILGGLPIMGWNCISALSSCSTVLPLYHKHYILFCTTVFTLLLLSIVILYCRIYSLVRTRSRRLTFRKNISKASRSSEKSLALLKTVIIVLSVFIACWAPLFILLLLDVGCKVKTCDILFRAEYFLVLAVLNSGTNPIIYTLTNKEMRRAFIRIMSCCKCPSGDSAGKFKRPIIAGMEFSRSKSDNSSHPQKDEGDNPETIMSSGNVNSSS
- PROCEDURE DETAILS: Agonist activity at human S1P1 receptor expressed in HEK293T cells assessed as stimulation of gamma-[35S]GTP binding after 30 mins by scintillation counting
pEC50: −log10 of the molar value.

# SMILES NOTATION, pEC50
measured = [
    ("C[C@](N)(COP(=O)(O)O)c1nc(-c2ccc(OCc3ccc(-c4ccccc4)cc3)c(C(F)(F)F)c2)c[nH]1", 8.79),
    ("C[C@](N)(COP(=O)(O)O)c1nc(-c2ccc(OCCc3ccc(-c4ccccc4)cc3)c(C(F)(F)F)c2)c[nH]1", 7.65),
    ("C[C@](N)(COP(=O)(O)O)C(=O)Nc1ccc(C(=O)CCc2ccc(-c3ccccc3)cc2)cc1", 7.74),
    ("CCCCCCCCCCCCC/C=C/[C@@H](O)[C@@H](N)COP(=O)(O)O", 8.25),
]

---

- TARGET: Sphingosine 1-phosphate receptor 3 (Homo sapiens)
- PROCEDURE DETAILS: Displacement of [33P]sphingosine-1-phosphate from human S1P3 receptor expressed in HEK293T cells after 60 mins by scintillation counting

# SMILES NOTATION, IC50
data = [
    ("COC(=O)c1cc(NC(=O)[C@@](C)(N)COP(=O)(O)O)ccc1OCCc1ccc(-c2ccccc2)cc1", "> 10 µM"),
    ("C[C@](N)(COP(=O)(O)O)c1nc(-c2ccc(OCCc3ccc(-c4ccccc4)cc3)c(C(F)(F)F)c2)c[nH]1", "> 100 µM"),
    ("CNC(=O)c1cc(NC(=O)[C@@](C)(N)COP(=O)(O)O)ccc1OCCc1ccc(-c2ccccc2)cc1", "> 1 µM"),
    ("C[C@](N)(COP(=O)(O)O)C(=O)Nc1ccc(OCCc2ccc(-c3ccccc3)cc2)c(C(=O)O)c1", "> 10 µM"),
    ("C[C@](N)(COP(=O)(O)O)C(=O)Nc1ccc(OCCc2ccc(-c3ccccc3)cc2)c(C(N)=O)c1", "> 1 µM"),
]
